Assay: AP1 Signaling Pathway (AID 357);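 also: ME-180 reporter cells stimulated with EGF at its EC50 level; % is scaled to controls: 0 for no effect and ±100 for the full control effect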
Conditions: ME-180 (cervical carcinoma) AP-1-bla reporter, EGF-induced, beta-lactamase ratio, 5 h; at 7.69 µM (top of the series) unless noted
Inconclusive results are not listed. Calls of active or inactive are those of the source. Calls follow the shape of the dose curve; as a rule, active = well fitted curve in either direction with a large enough effect (not every such curve was filed as active); inconclusive = small, poorly fitted or top-dose-only effect, or another doubt; inactive = flat fitted curve, though single readings scatter.
QUANTITY_MEASURED: activity change, negative = inhibition

Past entries and their recorded results:
{"COMPOUND": "O=C1OC(c2ccc(O)c(-c3ccccc3)c2)(c2ccc(O)c(-c3ccccc3)c2)c2c(Cl)c(Cl)c(Cl)c(Cl)c21", "activity change, negative = inhibition": "10.7% (inactive)"}
{"COMPOUND": "CC1(C)CCC(=O)N[C@H]1CC(=O)C[C@H]1NC(=O)CCC1(C)C", "activity change, negative = inhibition": "-7.26% (inactive)"}
{"COMPOUND": "CN(C(=O)c1ccncc1)c1ccccc1", "activity change, negative = inhibition": "-3.23% (inactive)"}
{"COMPOUND": "CC12CC[C@@H]3c4ccc(OP(=O)(O)O)cc4CCC3C1CCC2=O (some centres undefined)", "activity change, negative = inhibition": "2.65% (inactive)"}
{"COMPOUND": "N#CC(=NCCO)C1=C(O)c2ccccc2C1=O", "activity change, negative = inhibition": "-1.5% (inactive)"}
{"COMPOUND": "Cc1cc([N+](=O)[O-])c(C)c(Br)c1C", "activity change, negative = inhibition": "3.15% (inactive)"}

Next compound, please.
Q) Assign activity change, negative = inhibition to the following record: CN(C)C(=O)c1ccc(-c2nc(Nc3ccncc3)c3ccccc3n2)cc1
A) -14.2% (inactive)

====

In this section we review reported activity change, negative = inhibition values for a set of compounds.
Experiment: NFAT Signaling Pathway (AID 444);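 also: carbachol stimulus at about its EC50 of 1 µM final; % is scaled to controls: 0 for no effect and ±100 for the full control effect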
Conditions: Jurkat NFAT-bla M1, carbachol, beta-lactamase ratio, 5 h; at 7.69 µM (top of the series) unless noted
Results filed as inconclusive are left out. The source made the active and inactive calls. Calls come from the whole dose curve; as a rule, active = well fitted curve in either direction with a large enough effect (not every such curve was filed as active); inconclusive = small, poorly fitted or top-dose-only effect, or another doubt; inactive = flat fitted curve, though single readings scatter.

{"COMPOUND": "CC(C)[C@](N)(C(=O)O)c1ccccc1", "RECORDED_MEASUREMENT": "5.98% (inactive)"}
{"COMPOUND": "Cn1c(=O)c2[nH]c(CSCc3ccccc3)nc2n(C)c1=O", "RECORDED_MEASUREMENT": "8.43% (inactive)"}

Q) Tell me measured activity change, negative = inhibition for Cn1c(=O)c2[nH]c(COCc3nc4c([nH]3)c(=O)n(C)c(=O)n4C)nc2n(C)c1=O please.
A) 5.77% (inactive)

Q) Look up and state reported activity change, negative = inhibition for CCN1CCc2c(C#N)c(NCc3ccccc3)nc(NCCO)c2C1
A) -11% [at 17.2 µM] (inactive)

Q) Could you please provide reported activity change, negative = inhibition for C=C[C@H]1CN2CC[C@@H]1C[C@H]2[C@@H](O)c1ccnc2ccc(OC)cc12 ? Thanks!
A) -13% [at 17.2 µM] (inactive)

Q) # return recorded activity change, negative = inhibition for entry O=C1C2C3C=CC(C2C(=O)N1CN1CCOCC1)C1C2C(=O)N(CN4CCOCC4)C(=O)C2C31 (configuration not stated)
A) 6.33% (inactive)

Q) // Input: Nc1ccn([C@@H]2O[C@H](COC(=O)C34CC5CC(CC(C5)C3)C4)[C@@H](O)[C@@H]2O)c(=O)n1 . Output its activity change, negative = inhibition only.
A) 16.8% (inactive)

Q) Give the measured activity change, negative = inhibition for CCOC(=O)Nc1nc(-c2ccccc2)c(C)s1
A) -9.95% (inactive)

Q) Please indicate activity change, negative = inhibition recorded for NC(=O)/N=C(\N)NC(=O)c1ccccc1
A) 8.99% (inactive)

Q) Give the reported value of activity change, negative = inhibition for this record: CN(C)c1ccc(C(=C2C=CC(=[N+](C)C)C=C2)c2c(O)c(S(=O)(=O)O)cc3cc(S(=O)(=O)O)ccc23)cc1
A) -12.3% (inactive)

Q) Answer with the recorded activity change, negative = inhibition of O[C@]1(c2ccccc2)c2ccccc2NC2=NCCN21 only.
A) -13.7% (inactive)
